The reported numbers originate from the supplement of paper PMC12667976.

B1: library; numbered along this chain (parent)
chain: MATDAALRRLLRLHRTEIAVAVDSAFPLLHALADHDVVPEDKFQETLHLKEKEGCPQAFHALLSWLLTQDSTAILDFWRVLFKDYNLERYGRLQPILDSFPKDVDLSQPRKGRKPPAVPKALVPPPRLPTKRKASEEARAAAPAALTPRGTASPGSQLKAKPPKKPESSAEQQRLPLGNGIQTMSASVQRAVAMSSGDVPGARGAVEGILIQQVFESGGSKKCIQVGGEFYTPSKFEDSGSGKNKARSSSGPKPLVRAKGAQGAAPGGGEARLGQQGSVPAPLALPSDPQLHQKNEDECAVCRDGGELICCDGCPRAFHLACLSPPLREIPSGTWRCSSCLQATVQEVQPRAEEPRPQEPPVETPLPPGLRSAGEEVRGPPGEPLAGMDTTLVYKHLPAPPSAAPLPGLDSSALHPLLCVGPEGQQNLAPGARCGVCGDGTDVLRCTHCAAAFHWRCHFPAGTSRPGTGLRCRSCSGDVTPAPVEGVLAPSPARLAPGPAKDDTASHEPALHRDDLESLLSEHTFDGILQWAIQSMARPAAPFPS

# Variants of: B1
# Experiment: AIRE transcriptional activation functional score (insulin promoter-GFP; nonsense median 0, synonymous median 1) (normalised score); higher = higher AIRE activity (more reporter activation)
# Condition Context: with insulin promoter-GFP reporter in HEK293
Values of AIRE transcriptional activation functional score greater than or equal to 1 map to true (1); values below map to false (0).

See these solved cases before continuing.
D304H = true (1)
G369R = false (0)
E363W = true (1)
R465N = false (0)
P325S = true (1)

Asked: Please check the record `D41F` and state if its AIRE transcriptional activation functional score is at or above 1.
Given back: false (0)

Asked: Please check the record `A5Q` and state if its AIRE transcriptional activation functional score is at or above 1.
Given back: false (0)

Asked: Please check the record `L519N` and state if its AIRE transcriptional activation functional score is at or above 1.
Given back: false (0)

Asked: Please check the record `A281W` and state if its AIRE transcriptional activation functional score is at or above 1.
Given back: true (1)

Asked: Please check the record `A58Q` and state if its AIRE transcriptional activation functional score is at or above 1.
Given back: false (0)

Asked: Please check the record `A284S` and state if its AIRE transcriptional activation functional score is at or above 1.
Given back: true (1)

Asked: Please check the record `S474N` and state if its AIRE transcriptional activation functional score is at or above 1.
Given back: false (0)

Asked: Please check the record `S156M` and state if its AIRE transcriptional activation functional score is at or above 1.
Given back: false (0)

Asked: Please check the record `K164R` and state if its AIRE transcriptional activation functional score is at or above 1.
Given back: true (1)

Asked: Please check the record `A537H` and state if its AIRE transcriptional activation functional score is at or above 1.
Given back: false (0)

Asked: Please check the record `A31G` and state if its AIRE transcriptional activation functional score is at or above 1.
Given back: false (0)

Asked: Please check the record `K253W` and state if its AIRE transcriptional activation functional score is at or above 1.
Given back: true (1)

Asked: Please check the record `L511Q` and state if its AIRE transcriptional activation functional score is at or above 1.
Given back: false (0)

Asked: Please check the record `A6C` and state if its AIRE transcriptional activation functional score is at or above 1.
Given back: false (0)

Asked: Please check the record `L385Y` and state if its AIRE transcriptional activation functional score is at or above 1.
Given back: true (1)

Asked: Please check the record `L66H` and state if its AIRE transcriptional activation functional score is at or above 1.
Given back: false (0)
